biological target: GK-GKRP (glucokinase / glucokinase regulatory protein) (Homo sapiens, UniProt Q14397); experiment: GKRP LC MS/MS Biochemical Assay (LCMS/MS); details: formation of 13C-glucose-6-phosphate from 13C-glucose by LC MS/MS, human His-hepatic GK, fructose-6-phosphate
QUANTITY NAME: EC50 (nM)
The answer is to be given in nM; state only the numeric part.

Take a look at these entries with their results.
O=S(=O)(N[C@H](c1ccccc1)c1cc2ccccc2s1)c1ccc2c(c1)OCCCO2 (single isomer, unassigned) [Example 57 Peak #2] | 87
C=Cc1ccccc1C(NS(=O)(=O)c1ccc2c(c1)OCCCO2)c1cc2ccccc2o1 (racemic) | 45

Please examine the following record next.
// query # query: EC50 of entry Cc1c(C(NS(=O)(=O)c2ccc3c(c2)OCCCO3)c2ccccc2)oc2ccccc12 (racemic)
// result 480

* * *

Molecular target: GK-GKRP (interaction between glucokinase and glucokinase regulatory protein) (Homo sapiens, UniProt Q14397)
Construct: made in house; host or cells: GKRP: baculovirus system
Sequence (Q14397 1-625): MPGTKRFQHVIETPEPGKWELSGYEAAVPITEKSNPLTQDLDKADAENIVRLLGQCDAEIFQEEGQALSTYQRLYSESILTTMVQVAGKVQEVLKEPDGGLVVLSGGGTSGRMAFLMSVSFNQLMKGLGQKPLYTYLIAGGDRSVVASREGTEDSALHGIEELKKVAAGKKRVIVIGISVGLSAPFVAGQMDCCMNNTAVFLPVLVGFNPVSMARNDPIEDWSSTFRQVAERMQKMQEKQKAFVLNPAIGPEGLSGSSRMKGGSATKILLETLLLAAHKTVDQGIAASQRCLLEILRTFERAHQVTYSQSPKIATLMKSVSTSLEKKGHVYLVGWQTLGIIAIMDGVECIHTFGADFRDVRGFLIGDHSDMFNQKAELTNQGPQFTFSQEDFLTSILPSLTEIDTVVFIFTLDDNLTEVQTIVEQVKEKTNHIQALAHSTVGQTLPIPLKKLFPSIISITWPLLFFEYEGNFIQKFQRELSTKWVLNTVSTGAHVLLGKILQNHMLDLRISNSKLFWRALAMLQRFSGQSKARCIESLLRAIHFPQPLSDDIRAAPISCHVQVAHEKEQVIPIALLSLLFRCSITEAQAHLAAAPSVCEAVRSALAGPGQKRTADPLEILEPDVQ
Experiment: GK-GKRP Binding Assay (Binding), AlphaScreen
Details: avi-tagged GKRP, GK-fluorescein, AlphaScreen beads, 1 μM sorbitol-6-phosphate; read-out: GK-GKRP IC50 (Binding)
Each entry below carries its recorded IC50.

Check out these entries, answers already filled in.
COc1ccccc1C(NS(=O)(=O)c1ccc2c(c1)OCCCO2)c1cc2ccccc2s1 (racemic) [Example 40] | 110 nM
C#Cc1ccccc1C(NS(=O)(=O)c1ccc2c(c1)OCCCO2)c1cc2ccccc2o1 (racemic) [Example 8] | 47 nM
O=S(=O)(N[C@@H](c1cc2cccc(-c3cc(C(O)(C(F)(F)F)C(F)(F)F)ccn3)c2s1)c1ccccc1Cl)c1ccc2c(c1)OCCCO2 [Example 81] | 87 nM
O=S(=O)(N[C@@H](c1cc2ccccc2s1)c1ccccc1Cl)c1ccc2c(c1)OCC(F)CO2 (mixture of isomers) [Example 78] | 47 nM
Cc1cc(F)ccc1C(NS(=O)(=O)c1ccc2c(c1)OCCCO2)c1cc2ccccc2o1 (racemic) [Example 3] | 1800 nM
CCc1ccccc1[C@H](NS(=O)(=O)c1ccc2c(c1)OCCCO2)c1cc2ccccc2o1 (single isomer, unassigned) [Example 6 Peak #1] | 4800 nM

// query Please report the recorded IC50 for CSc1ccccc1C(NS(=O)(=O)c1ccc2c(c1)OCCCO2)c1nc2cccnc2s1 (racemic) [Example 65] .
// result 9 nM

// query If you can, please state the reported IC50 value of CSc1ccccc1[C@H](NS(=O)(=O)c1ccc2c(c1)OCCCO2)c1cc2ccccc2s1 (single isomer, unassigned) [Example 41 Peak #1] .
// result 140 nM

// query # IC50 lookup, item Cc1c(C(NS(=O)(=O)c2ccc3c(c2)OCCCO3)c2ccccc2)oc2ccccc12 (racemic) [Example 44]
// result 1000 nM

// query IC50 for Cc1cccnc1[C@H](NS(=O)(=O)c1ccc2c(c1)OCCCO2)c1cc2ccccc2o1 (single isomer, unassigned) [Example 26 Peak #1] ?
// result > 33000 nM

// query Item O=S(=O)(NC(c1cc2ccccc2o1)c1ccccc1CO)c1ccc2c(c1)OCCCO2 (racemic) [Example 15] has what recorded IC50?
// result 4600 nM

// query # IC50 lookup, item O=S(=O)(N[C@@H](c1cc2ccccc2o1)c1ccccc1Br)c1ccc2c(c1)OCCCO2 (single isomer, unassigned) [Example 22 Peak #2]
// result 83 nM

// query Given O=S(=O)(NC(c1cc2ccccc2o1)c1ccccc1F)c1ccc2c(c1)OCCCO2 (racemic) [Example 23] , state its recorded IC50.
// result 490 nM

* * *

molecular target: GK-GKRP (interaction between glucokinase and glucokinase regulatory protein) (Homo sapiens); construct: made in house; host or cells: GKRP: baculovirus system; assay: GK-GKRP Binding Assay (Binding), AlphaScreen; details: avi-tagged GKRP, GK-fluorescein, AlphaScreen beads, 1 μM sorbitol-6-phosphate; read-out: GK-GKRP IC50 (Binding)
QUANTITY NAME: pIC50
# log scale: pIC50 equals minus log10 of the concentration in mol/L

O=S(=O)(N[C@H](c1ccccc1)c1cc2cccc(-c3ccccn3)c2s1)c1ccc2c(c1)OCCCO2 (single isomer, unassigned) [Example 71 Peak #2] | 6.46

Field: next compound
// query Give its pIC50 value. Item: CSc1ccccc1[C@H](NS(=O)(=O)c1ccc2c(c1)OCCCO2)c1nc2cccnc2s1 (single isomer, unassigned) [Example 65 Peak #1]
// result 6.05

* * *

molecular target: GK-GKRP (interaction between glucokinase and glucokinase regulatory protein) (Homo sapiens); construct: made in house; host or cells: GKRP: baculovirus system; assay: GK-GKRP Binding Assay (Binding), AlphaScreen; conditions: avi-tagged GKRP, GK-fluorescein, AlphaScreen beads, 1 μM sorbitol-6-phosphate; read-out: GK-GKRP IC50 (Binding)
The following compounds are listed with their measured IC50 values.
Just the number please, in nM, no unit attached.

COc1cnccc1C(NS(=O)(=O)c1ccc2c(c1)OCCCO2)c1cc2cccnc2s1 (racemic) | 410

// query What value of IC50 has been reported for the following compound? O=S(=O)(NC(c1ccccc1)c1cc2cccc(-c3ccccn3)c2s1)c1ccc2c(c1)OCCCO2 (racemic)
// result 540

// query # lookup: IC50 of CCc1ccccc1C(NS(=O)(=O)c1ccc2c(c1)OCCCO2)c1cc2ccccc2s1 (racemic)
// result 300

* * *

EC50 overview
Target: GK-GKRP (glucokinase / glucokinase regulatory protein) (Homo sapiens)
Sequence (Q14397 1-625): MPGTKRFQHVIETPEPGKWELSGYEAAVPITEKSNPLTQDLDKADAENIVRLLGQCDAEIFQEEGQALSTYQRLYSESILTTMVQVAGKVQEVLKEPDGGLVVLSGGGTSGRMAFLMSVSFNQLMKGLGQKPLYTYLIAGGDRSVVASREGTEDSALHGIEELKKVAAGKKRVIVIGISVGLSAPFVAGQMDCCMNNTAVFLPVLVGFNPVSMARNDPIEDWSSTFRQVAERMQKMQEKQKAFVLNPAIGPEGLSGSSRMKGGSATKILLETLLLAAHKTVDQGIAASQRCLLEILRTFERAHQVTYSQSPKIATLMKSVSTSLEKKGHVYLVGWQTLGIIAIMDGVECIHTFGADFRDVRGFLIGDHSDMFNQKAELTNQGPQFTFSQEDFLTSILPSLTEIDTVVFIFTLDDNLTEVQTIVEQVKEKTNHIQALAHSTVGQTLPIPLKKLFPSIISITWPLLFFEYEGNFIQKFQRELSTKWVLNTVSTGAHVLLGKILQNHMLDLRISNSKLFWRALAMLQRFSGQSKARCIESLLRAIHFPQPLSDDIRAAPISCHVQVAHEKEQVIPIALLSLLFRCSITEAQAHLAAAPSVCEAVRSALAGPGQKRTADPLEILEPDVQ
Assay: GKRP LC MS/MS Biochemical Assay (LCMS/MS)
Conditions: formation of 13C-glucose-6-phosphate from 13C-glucose by LC MS/MS, human His-hepatic GK, fructose-6-phosphate

Record excerpt, results attached:
Cc1ccccc1[C@H](NS(=O)(=O)c1ccc2c(c1)OCCCO2)c1cc2ccccc2o1 (single isomer, unassigned) [Example 2 Peak #1] | > 50 µM
Cc1ccccc1[C@H](NS(=O)(=O)c1ccc2c(c1)OCCCO2)c1cc2ccccc2s1 (single isomer, unassigned) [Example 36 Peak #1] | > 20 µM

Shifting focus to the compound that follows.
// query Which EC50 is listed for O=S(=O)(N[C@H](c1cc2ccccc2o1)c1ccccc1I)c1ccc2c(c1)OCCCO2 (single isomer, unassigned) [Example 21 Peak #1] ?
// result > 20 µM

* * *

Biological target: GK-GKRP (interaction between glucokinase and glucokinase regulatory protein) (Homo sapiens)
Construct: made in house; host or cells: GKRP: baculovirus system
Sequence (Q14397 1-625): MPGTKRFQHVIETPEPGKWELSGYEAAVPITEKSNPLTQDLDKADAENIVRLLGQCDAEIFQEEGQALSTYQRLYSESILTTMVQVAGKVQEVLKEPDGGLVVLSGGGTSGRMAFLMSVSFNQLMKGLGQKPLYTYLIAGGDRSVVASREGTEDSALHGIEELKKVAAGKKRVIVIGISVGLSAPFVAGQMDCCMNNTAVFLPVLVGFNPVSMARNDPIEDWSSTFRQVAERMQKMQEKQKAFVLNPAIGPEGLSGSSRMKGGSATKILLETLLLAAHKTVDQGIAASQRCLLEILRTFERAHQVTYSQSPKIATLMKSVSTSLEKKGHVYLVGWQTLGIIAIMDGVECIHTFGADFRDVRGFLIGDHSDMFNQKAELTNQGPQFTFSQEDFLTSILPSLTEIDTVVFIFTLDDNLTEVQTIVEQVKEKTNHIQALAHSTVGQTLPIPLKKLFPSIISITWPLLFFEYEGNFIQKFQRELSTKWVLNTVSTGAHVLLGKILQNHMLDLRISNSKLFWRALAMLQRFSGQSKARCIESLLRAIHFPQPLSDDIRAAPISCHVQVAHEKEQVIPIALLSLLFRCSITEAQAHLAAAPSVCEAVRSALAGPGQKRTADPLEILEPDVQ
Assay: GK-GKRP Binding Assay (Binding), AlphaScreen
Details: avi-tagged GKRP, GK-fluorescein, AlphaScreen beads, 1 μM sorbitol-6-phosphate; read-out: GK-GKRP IC50 (Binding)
Response field label takes fulfilled when IC50 is strictly below 300 nM and not fulfilled in all other cases.

For orientation, consider the following solved cases.
Cc1cccc(F)c1C(NS(=O)(=O)c1ccc2c(c1)OCCCO2)c1cc2ccccc2o1 (racemic) [Example 5] | not fulfilled
Nc1cccc(C(NS(=O)(=O)c2ccc3c(c2)OCCCO3)c2cc3ccccc3o2)n1 (racemic) [Example 79] | fulfilled
C[C@@](O)(c1ccnc(-c2cccc3cc([C@@H](NS(=O)(=O)c4ccc5c(c4)OCCCO5)c4ccccc4)sc23)c1)C(F)(F)F (single isomer, unassigned) [Example 70 Peak #3] | not fulfilled
C[C@](O)(c1ccnc(-c2cccc3cc([C@@H](NS(=O)(=O)c4ccc5c(c4)OCCCO5)c4ccccc4)sc23)c1)C(F)(F)F (racemic) [Example 70] | fulfilled
COc1ccccc1[C@@H](NS(=O)(=O)c1ccc2c(c1)OCCCO2)c1cc2ccccc2o1 (single isomer, unassigned) [Example 17 Peak #2] | fulfilled
COc1cccnc1C(NS(=O)(=O)c1ccc2c(c1)OCCCO2)c1cc2cccnc2s1 (racemic) [Example 49] | fulfilled
COc1ccccc1C(NS(=O)(=O)c1ccc2c(c1)OCCCO2)c1nc2ccccc2s1 (racemic) [Example 51] | fulfilled
COc1ccc2sc(C(NS(=O)(=O)c3ccc4c(c3)OCCCO4)c3ccccc3)cc2c1 (racemic) [Example 58] | not fulfilled

// query Item O=S(=O)(N[C@@H](c1cc2ccccc2o1)c1ccccc1I)c1ccc2c(c1)OCCCO2 (single isomer, unassigned) [Example 21 Peak #2] : IC50 beneath 300 nM, strictly?
// result fulfilled

// query Please check: IC50 for O=S(=O)(NC(c1ccccc1)c1nc2ccccc2o1)c1ccc2c(c1)OCCCO2 (racemic) [Example 54] , strictly under 300 nM or not?
// result not fulfilled

// query IC50 under 300 nM? Item: COc1cccnc1C(NS(=O)(=O)c1ccc2c(c1)OCCCO2)c1nc2ccccc2s1 (racemic) [Example 53]
// result fulfilled

Hello, the source for this data is patent US20140155415A1, in case you need it.
